target: Adenosine receptor A2b (Homo sapiens); assay: Displacement of [3H]DPCPX from human recombinant adenosine A2B receptor expressed in HEK293 cells by microplate beta scintillation counter
Sequence (P29275 whole entry): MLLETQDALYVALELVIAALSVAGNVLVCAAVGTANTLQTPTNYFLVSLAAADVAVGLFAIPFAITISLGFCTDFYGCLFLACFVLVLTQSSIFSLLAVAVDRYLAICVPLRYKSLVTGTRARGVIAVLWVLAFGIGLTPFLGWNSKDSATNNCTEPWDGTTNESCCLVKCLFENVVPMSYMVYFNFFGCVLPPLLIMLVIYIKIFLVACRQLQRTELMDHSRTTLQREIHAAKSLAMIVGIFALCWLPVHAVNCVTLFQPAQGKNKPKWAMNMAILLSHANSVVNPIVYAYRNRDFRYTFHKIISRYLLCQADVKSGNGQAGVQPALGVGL
pKi: −log10 of the molar value.
Please note: true (1) applies when pKi is 7 or greater, and false (0) applies otherwise.

INSERT INTO results (compound, assigned_class) VALUES
  ('CCn1c(=O)c2c(nc(Cc3cccs3)n2C)n(Cc2ccccc2)c1=O', 'false (0)'),
  ('CCCn1c(=O)c2[nH]c(-c3ccccc3)nc2n(CC[S+]([O-])CC)c1=O (centres undefined)', 'false (0)'),
  ('CCCn1c(=O)c2[nH]c(-c3ccccc3)nc2n(CCSCC)c1=O', 'false (0)'),
  ('CCSCCn1c(=O)n(CC)c(=O)c2[nH]c(-c3ccccc3)nc21', 'false (0)'),
  ('CCn1c(=O)c2c(nc(Cc3ccco3)n2C)n(Cc2cccs2)c1=O', 'true (1)');

Query :: Quick check: does `CCn1c(=O)c2c(nc(Cc3cccs3)n2C)n(Cc2cccs2)c1=O` have pKi greater than or equal to 7?
Result :: true (1)

Query :: Determine whether measured pKi meets or exceeds 7 for `CCn1c(=O)c2c(nc(Cc3ccco3)n2C)n(Cc2ccccc2)c1=O`
Result :: false (0)

---

Here the recorded Ki is given for each entry.
target: Adenosine receptor A1 (Homo sapiens, UniProt P30542); test: Displacement of [3H]DPCPX from human recombinant adenosine A1 receptor expressed in CHO cells by microplate beta scintillation counter; format: cell-based
Sequence (P30542 whole entry): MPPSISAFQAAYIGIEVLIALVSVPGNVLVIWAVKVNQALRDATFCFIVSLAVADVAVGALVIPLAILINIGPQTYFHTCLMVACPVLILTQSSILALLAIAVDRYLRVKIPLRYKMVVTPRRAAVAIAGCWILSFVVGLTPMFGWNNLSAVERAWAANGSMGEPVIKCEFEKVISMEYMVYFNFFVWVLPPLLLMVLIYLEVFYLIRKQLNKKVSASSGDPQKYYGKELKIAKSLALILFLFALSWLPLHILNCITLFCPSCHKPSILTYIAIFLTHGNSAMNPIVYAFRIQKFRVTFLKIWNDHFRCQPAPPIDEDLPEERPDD
Give your result in nM as a bare value.

Some entries whose results are on file:
INSERT INTO results (molecule, test_system, measurement_type, measured_result) VALUES
  ('CCn1c(=O)c2c(nc(Cc3ccco3)n2C)n(Cc2cccs2)c1=O', 'Adenosine receptor A1 (Homo sapiens, UniProt P30542)', 'Ki', 100),
  ('CCn1c(=O)c2c(nc(Cc3c(F)cccc3F)n2C)n(Cc2cccs2)c1=O', 'Adenosine receptor A1 (Homo sapiens, UniProt P30542)', 'Ki', 120);

Query :: Which Ki value is on record for CCCn1c(=O)c2[nH]c(-c3ccccc3)nc2n(CC2CCCO2)c1=O (stereo not drawn) ?
Result :: 224

---

Biological target: Adenosine receptor A3 (Homo sapiens) (UniProt P0DMS8)
Sequence (whole entry): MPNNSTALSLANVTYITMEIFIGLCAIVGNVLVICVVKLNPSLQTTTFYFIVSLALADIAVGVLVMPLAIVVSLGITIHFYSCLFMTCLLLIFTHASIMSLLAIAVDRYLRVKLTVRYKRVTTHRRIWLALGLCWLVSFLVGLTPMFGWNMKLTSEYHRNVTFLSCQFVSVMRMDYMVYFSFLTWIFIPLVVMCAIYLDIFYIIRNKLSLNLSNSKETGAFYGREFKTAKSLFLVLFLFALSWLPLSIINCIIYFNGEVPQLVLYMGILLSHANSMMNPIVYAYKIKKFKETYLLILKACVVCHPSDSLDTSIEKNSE
Experiment: Displacement of [3H]NECA from human recombinant adenosine A3 receptor expressed in human HeLa cells at 1 uM by microplate beta scintillation counter
Format: cell-based
MEASUREMENT_TYPE: Activity (%)
Give the value in % but do not write % after it.

INSERT INTO results (molecule, measurement_type, measure_unit, measured_result) VALUES
  ('Cn1c(=O)c2[nH]c(Cc3cccs3)nc2n(CC2CCCCC2)c1=O', 'Activity', '%', 2),
  ('CCCn1c(=O)c2[nH]c(Cc3ccccc3)nc2n(CC[S+]([O-])CC)c1=O (stereo not given)', 'Activity', '%', 18),
  ('CCn1c(=O)c2[nH]c(-c3ccccc3)nc2n(CC[S+]([O-])CC)c1=O (stereo not given)', 'Activity', '%', 0),
  ('Cn1c(=O)c2[nH]c(-c3cccs3)nc2n(CC2CCCCC2)c1=O', 'Activity', '%', 41),
  ('CCCn1c(=O)c2[nH]c(Cc3ccccc3)nc2n(CCOCC)c1=O', 'Activity', '%', 2);

Query :: Looking for the measured Activity of `CCn1c(=O)c2[nH]c(Cc3c(F)cccc3F)nc2n(Cc2cccs2)c1=O` , can you help?
Result :: 38

Query :: Could you tell me which Activity is on file for `CCCn1c(=O)c2c(nc(-c3ccccc3)n2C)n(CCSCC)c1=O` ?
Result :: 1
